// provenance: patent US20250320205A1

Target: STAT6 (Homo sapiens, UniProt P42226)
Construct: These cells express endogenous STAT6; host or cells: HeLa LgBiT clone 4.14 (CRISPR knock-in of HiBiT into the endogenous STAT6 gene)
Sequence (P42226 1-847): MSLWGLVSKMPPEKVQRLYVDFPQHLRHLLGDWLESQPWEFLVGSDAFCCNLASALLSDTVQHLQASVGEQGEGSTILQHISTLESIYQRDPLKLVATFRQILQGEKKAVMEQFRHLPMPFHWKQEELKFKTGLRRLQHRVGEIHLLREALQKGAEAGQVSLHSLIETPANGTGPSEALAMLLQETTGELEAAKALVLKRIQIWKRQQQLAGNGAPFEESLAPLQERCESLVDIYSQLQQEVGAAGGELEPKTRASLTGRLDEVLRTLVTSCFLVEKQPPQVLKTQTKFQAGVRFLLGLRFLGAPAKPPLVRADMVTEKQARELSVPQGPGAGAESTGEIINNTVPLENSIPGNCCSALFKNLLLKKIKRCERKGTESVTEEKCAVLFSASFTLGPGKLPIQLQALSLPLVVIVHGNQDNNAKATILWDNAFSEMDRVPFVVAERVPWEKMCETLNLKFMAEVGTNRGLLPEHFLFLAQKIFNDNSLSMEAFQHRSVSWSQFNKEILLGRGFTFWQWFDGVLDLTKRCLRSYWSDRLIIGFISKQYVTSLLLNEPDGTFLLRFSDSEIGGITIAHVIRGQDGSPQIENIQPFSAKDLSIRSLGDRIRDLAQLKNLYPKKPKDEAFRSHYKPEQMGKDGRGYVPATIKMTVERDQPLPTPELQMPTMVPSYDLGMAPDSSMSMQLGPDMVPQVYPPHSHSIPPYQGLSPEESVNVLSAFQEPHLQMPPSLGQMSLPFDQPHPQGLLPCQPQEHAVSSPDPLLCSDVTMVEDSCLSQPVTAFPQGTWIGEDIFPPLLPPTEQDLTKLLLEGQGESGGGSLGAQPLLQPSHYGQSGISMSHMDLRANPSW
Test: STAT6 Degrader Assay (HiBiT based, HeLa LgBiT clone 4.14 cells)
Format: cell-based
Settings: geometric mean across assay runs and compound batches; DC50 provided for test compounds with >80% Emax; read-out: STAT6 degradation DC50
Exercise: for every item that follows, state its recorded DC50.
Answers are plain numbers, in nM.

Memo: CNc1cc(=O)n(-c2ccnc3c2cc([C@H](C)N2CC=C(c4c(F)cc(C(=O)N5CCC(CN6CCN(c7ccc(N[C@@H]8CCC(=O)NC8=O)cc7F)CC6)CC5)cc4F)CC2)n3C)cc1F (single isomer, unassigned) , reported DC50: 9.6

Memo: Cc1cc(C(=O)N2CCC(CN3CCN(c4ccc(N[C@@H]5CCC(=O)NC5=O)cc4F)C[C@H]3C)CC2)cc(F)c1C1=CCN([C@@H](C)c2cc3c(-n4ccc5c(c4=O)CCN5)ccnc3n2C)CC1 (single isomer, unassigned) , reported DC50: 3

Memo: C[C@@H](c1cc2c(-n3ccc4c(c3=O)CCN4)ccnc2n1C)N1CCC(c2ccc(C(=O)N3CCC(CN4CCN(c5ccc(N[C@@H]6CCC(=O)NC6=O)cc5F)CC4)CC3)cc2)CC1 (single isomer, unassigned) , reported DC50: 7.5

Now consider the entry below.
Memo: CNc1ccn(-c2ccnc3c2cc([C@H](C)N2CC=C(c4c(C)cc(C(=O)N5CCC(CN6CCN(Cc7ccc(NC8CCC(=O)NC8=O)c(F)c7)CC6)CC5)cc4F)CC2)n3C)c(=O)c1 (stereo partly shown) , reported DC50: 11.4

###

Exercise: for every item that follows, state its recorded DC50.
target: STAT6 (Homo sapiens); construct: These cells express endogenous STAT6; host or cells: HeLa LgBiT clone 4.14 (CRISPR knock-in of HiBiT into the endogenous STAT6 gene); assay: STAT6 Degrader Assay (HiBiT based, HeLa LgBiT clone 4.14 cells); assay type: cell-based; details: geometric mean across assay runs and compound batches; DC50 provided for test compounds with >80% Emax; read-out: STAT6 degradation DC50
Answers are plain numbers, in nM.

Here's what some known entries look like.
With STAT6 (Homo sapiens) as the test system, CNc1cc(=O)n(-c2ccnc3c2cc([C@H](C)N2CC=C(c4c(C)cc(C(=O)N5CCC(CN6CCN(c7ccc(NC8CCC(=O)NC8=O)cc7F)CC6)CC5)cc4F)CC2)n3C)cc1F (stereo partly shown) [Example 2g91] showed DC50 of 7

With STAT6 (Homo sapiens) as the test system, CNc1cc(=O)n(-c2ccnc3c2cc([C@H](C)N2CC=C(c4c(C)cc(C(=O)N5CCC(CN6CCN(c7ccc(N[C@@H]8CCC(=O)NC8=O)cc7F)C[C@H]6C)CC5)cc4F)CC2)n3C)cc1F (single isomer, unassigned) [Example 2g28] showed DC50 of 10.3

With STAT6 (Homo sapiens) as the test system, Cc1cc(C(=O)N2CCC(CN3CCN(c4ccc(N[C@@H]5CCC(=O)NC5=O)cc4F)CC3)CC2)cc(F)c1C1=CCN([C@@H](C)c2cc3c(-n4ccc5c(c4=O)CCN5)ccnc3n2C)CC1 (single isomer, unassigned) [Example 2g20] showed DC50 of 6.9

Now consider the entry below.
With STAT6 (Homo sapiens) as the test system, CNc1ccn(-c2ccnc3c2cc([C@H](C)N2CC=C(c4c(C)cc(C(=O)N5CCC(CN6CCN(c7ncc(N[C@H]8CCC(=O)NC8=O)cc7F)C[C@H]6C)CC5)cc4F)CC2)n3C)c(=O)c1 (single isomer, unassigned) [Example 2g114] showed DC50 of 5.8

###

Exercise: for every item that follows, state its recorded pEC50.
tested on: Eotaxin-3 (CCL26) release; assay: Human Whole Blood Eotaxin-3 Assay (IL-4 stimulated); format: cell-based; conditions: Homo sapiens; geometric mean across assay runs and compound batches; EC50 provided for test compounds with >80% Emax
Give bare numbers, as −log10 of the molar value.

For every item in the list below, what is its measured pEC50?
1. Cc1cc(C(=O)N2CCC(CN3CCN(c4ccc(NC5CCC(=O)NC5=O)cc4F)CC3)CC2)cc(F)c1C1=CCN([C@@H](C)c2cc3c(-n4ccc5c(c4=O)CCN5)ccnc3n2C)CC1 (stereo partly shown)
2. CNc1cc(=O)n(-c2ccnc3c2cc(CN2CC=C(c4c(F)cc(C(=O)N5CCC(CN6CCN(c7ccc(NC8CCC(=O)NC8=O)cc7F)CC6)CC5)cc4F)CC2)n3C)cc1F (stereo not shown)
3. CNc1ccn(-c2ccnc3c2cc([C@H](C)N2CC=C(c4c(C)cc(C(=O)N5CCn6nc(CN7CCC(c8ccc(NC9CCC(=O)NC9=O)c(OC)c8)CC7)cc6C5)cc4F)CC2)n3C)c(=O)c1 (stereo partly shown)
4. CNc1cc(=O)n(-c2ccnc3c2cc([C@H](C)N2CC=C(c4c(F)cc(C(=O)N5CCC(CN6CCN(c7ccc(NC8CCC(=O)NC8=O)cc7F)CC6)CC5)cc4F)CC2)n3C)cc1F (stereo partly shown)
5. CNc1cc(=O)n(-c2ccnc3c2cc(CN2CCC(c4c(F)cc(C(=O)N5CCn6nc(CN7CCC(c8ccc(NC9CCC(=O)NC9=O)c(OC)c8)CC7)cc6C5)cc4F)CC2)n3C)cc1F (stereo not shown)

[out]
1. 8.26
2. 6.39
3. 9.30
4. 7.32
5. 8.44

###

tested on: Eotaxin-3 (CCL26) release; test: Human Whole Blood Eotaxin-3 Assay (IL-4 stimulated); format: cell-based; conditions: Homo sapiens; geometric mean across assay runs and compound batches; EC50 provided for test compounds with >80% Emax
pEC50: −log10 of the molar value.
Classify by measured pEC50: Satisfied if it is equal to or exceeds 8, Not satisfied if it is smaller.

Examples from the recorded data:
[in] pEC50 >= 8 for CNc1cc(=O)n(-c2ccnc3c2cc(CN2CCC(c4c(F)cc(C(=O)N5CCC(CN6CCN(c7ccc(NC8CCC(=O)NC8=O)cc7F)CC6)CC5)cc4F)CC2)n3C)cc1F (stereo not drawn) ?
[out] Not satisfied

[in] pEC50 >= 8 for CNc1cc(=O)n(-c2ccnc3c2cc([C@H](C)N2CCC(c4c(F)cc(C(=O)N5CCn6nc(CN7CCC(c8ccc(NC9CCC(=O)NC9=O)cc8F)CC7)cc6C5)cc4F)CC2)n3C)cc1F (stereo partly drawn) ?
[out] Satisfied

[in] pEC50 >= 8 for CNc1ccn(-c2ccnc3c2cc([C@H](C)N2CC=C(c4c(C)cc(C(=O)N5CCC(CN6CCN(c7ncc(NC8CCC(=O)NC8=O)cc7F)C[C@@H]6C)CC5)cc4F)CC2)n3C)c(=O)c1 (stereo partly drawn) ?
[out] Not satisfied

[in] pEC50 >= 8 for CNc1cc(=O)n(-c2ccnc3c2cc([C@H](C)N2CC=C(c4c(C)cc(C(=O)N5CCn6nc(CN7CCC(c8ccc(N[C@@H]9CCC(=O)NC9=O)c(OC)c8)CC7)cc6C5)cc4F)CC2)n3C)cc1F (single isomer, unassigned) ?
[out] Satisfied

[in] pEC50 >= 8 for CNc1cc(=O)n(-c2ccnc3c2cc([C@H](C)N2CC=C(c4c(C)cc(C(=O)N5CCn6nc(CN7CCC(c8ccc(N[C@H]9CCC(=O)NC9=O)cc8F)CC7)cc6C5)cc4F)CC2)n3C)cc1F (single isomer, unassigned) ?
[out] Satisfied

[in] pEC50 >= 8 for CNc1ccn(-c2ccnc3c2cc(CN2CCC(c4c(F)cc(C(=O)N5CCC(CN6CCN(c7ccc(NC8CCC(=O)NC8=O)cc7F)CC6)CC5)cc4F)CC2)n3C)c(=O)c1 (stereo not drawn) ?
[out] Not satisfied

[in] pEC50 >= 8 for CNc1ccn(-c2ccnc3c2cc([C@H](C)N2CC=C(c4c(C)cc(C(=O)N5CCC(CN6CCN(c7ccc(NC8CCC(=O)NC8=O)cc7F)C[C@@H]6C)CC5)cc4F)CC2)n3C)c(=O)c1 (stereo partly drawn) ?
[out] Not satisfied

New cases:
[in] pEC50 >= 8 for Cc1cc(C(=O)N2CCn3nc(CN4CCC(c5ccc(NC6CCC(=O)NC6=O)cc5F)CC4)cc3C2)cc(F)c1C1=CCN([C@@H](C)c2cc3c(-n4cc(F)c5c(c4=O)CCN5)ccnc3n2C)CC1 (stereo partly drawn) ?
[out] Satisfied
